Below, each entry is listed with its recorded Emax.
target under test: UniProt:P35372
Sequence (P35372 whole entry): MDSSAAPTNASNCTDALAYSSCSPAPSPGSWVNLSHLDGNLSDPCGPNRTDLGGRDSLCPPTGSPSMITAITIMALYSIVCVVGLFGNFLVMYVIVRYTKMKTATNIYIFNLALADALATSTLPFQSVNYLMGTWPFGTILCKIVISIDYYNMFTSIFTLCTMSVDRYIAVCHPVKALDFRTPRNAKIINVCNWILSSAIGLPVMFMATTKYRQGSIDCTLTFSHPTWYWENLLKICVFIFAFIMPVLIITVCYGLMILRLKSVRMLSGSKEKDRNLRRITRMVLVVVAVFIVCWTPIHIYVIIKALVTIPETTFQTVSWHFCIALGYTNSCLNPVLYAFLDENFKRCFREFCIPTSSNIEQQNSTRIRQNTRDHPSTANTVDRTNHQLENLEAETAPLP
test description: Incorporation of [35S]GTP-gamma-S, into CHO membranes expressing human Opioid receptor mu 1
Assay type: functional

Example entries begin here.
CC[C@@]12CCN(CC3CC3)C(C(=O)c3ccc(N)cc31)[C@@H]2C (single isomer, unassigned; (-)) : 10%
CC[C@@]12CCN(CC3CC3)C(C(=O)c3ccc(Nc4ccccc4)cc31)[C@@H]2C : 70%
C[C@H]1C2C(=O)c3ccc(N)cc3[C@@]1(C)CCN2CC1CC1 : 80%
C[C@H]1[C@H]2Cc3ccc(O)cc3[C@]1(C)CCN2CC1CC1 (stereo in doubt; (-)2) : 50%
CC[C@@]12CCN(CC3CC3)C(C(=O)c3ccc(N)cc31)[C@@H]2C (stereo in doubt; 44) : 60%
CC[C@@]12CCN(CC3CC3)C(C(=O)c3ccc(O)cc31)[C@@H]2C (single isomer, unassigned; (-)) : 70%
C[C@H]1C2C(=O)c3ccc(O)cc3[C@@]1(C)CCN2CC1CC1 : 40%

Name the reported Emax value associated with the compound C[C@H]1[C@H]2Cc3ccc(Nc4ccccc4)cc3[C@@]1(C)CCN2CC1CC1 50%

---

test description: Binding affinity towards Opioid receptor delta 1 from guinea pig brain using [3H]naltrindole as radioligand
pKi: −log10 of the molar value.
Param threshold (7) applies to pKi; output true when value >= threshold, false when value < threshold.

CC(C)Nc1ccc2c(c1)[C@@]1(C)CCN(CC3CC3)C(C2)[C@@H]1C : false
C[C@H]1[C@H]2Cc3ccc(Nc4ccccc4)cc3[C@@]1(C)CCN2CC1CC1 (stereo in doubt; (+)12) : false
C[C@H]1[C@H]2Cc3ccc(Nc4ccccc4)cc3[C@@]1(C)CCN2CC1CC1 (stereo in doubt; 10) : true
C[C@H]1C2Cc3ccc(N(C)Cc4ccccc4)cc3[C@@]1(C)CCN2CC1CC1 : false
C[C@H]1C2Cc3ccc(NCc4ccccc4)cc3[C@@]1(C)CCN2CC1CC1 (stereo in doubt; 25) : true
C[C@H]1C2Cc3ccc(N4CCN(C)CC4)cc3[C@@]1(C)CCN2CC1CC1 : false
C[C@H]1C2Cc3ccc(N4CCOCC4)cc3[C@@]1(C)CCN2CC1CC1 : false
CCNc1ccc2c(c1)[C@@]1(C)CCN(CC3CC3)C(C2)[C@@H]1C : true
C[C@H]1C2Cc3ccc(N4CCCCC4)cc3[C@@]1(C)CCN2CC1CC1 : false
C[C@H]1C2Cc3ccc(N(C)C)cc3[C@@]1(C)CCN2CC1CC1 (stereo in doubt; 30) : false

Please tell me: is the molecule C[C@H]1[C@H]2Cc3ccc(N)cc3[C@@]1(C)CCN2CC1CC1 at or over 7 in terms of pKi? true

Please tell me: is the molecule C[C@H]1C2Cc3ccc(N4CCCC4)cc3[C@@]1(C)CCN2CC1CC1 at or over 7 in terms of pKi? false

Please tell me: is the molecule C[C@H]1C2Cc3ccc(NCc4ccccc4)cc3[C@@]1(C)CCN2CC1CC1 (single isomer, unassigned; (-)) at or over 7 in terms of pKi? true

Please tell me: is the molecule CNc1ccc2c(c1)[C@@]1(C)CCN(CC3CC3)C(C2)[C@@H]1C at or over 7 in terms of pKi? false

---

target under test: UniProt P35372
test description: Incorporation of [35S]- GTPgammaS into CHO membranes expressing human Opioid receptor mu 1
Please note: EC50 exactly at 20 nM is condition not met. Only values below 20 nM get condition met.

CC[C@@]12CCN(CC3CC3)C(C(=O)c3ccc(N)cc31)[C@@H]2C (stereo in doubt; 44) : condition not met
C[C@H]1[C@H]2Cc3ccc(Nc4ccccc4)cc3[C@@]1(C)CCN2CC1CC1 : condition met
CC[C@@]12CCN(CC3CC3)C(C(=O)c3ccc(N)cc31)[C@@H]2C (single isomer, unassigned; (-)) : condition not met
CC[C@@]12CCN(CC3CC3)C(C(=O)c3ccc(Nc4ccccc4)cc31)[C@@H]2C : condition not met

Please check: EC50 for C[C@H]1C2C(=O)c3ccc(O)cc3[C@@]1(C)CCN2CC1CC1 , strictly under 20 nM or not? condition not met

Please check: EC50 for CC[C@@]12CCN(CC3CC3)C(C(=O)c3ccc(O)cc31)[C@@H]2C (single isomer, unassigned; (-)) , strictly under 20 nM or not? condition met

Please check: EC50 for C[C@H]1C2C(=O)c3ccc(N)cc3[C@@]1(C)CCN2CC1CC1 , strictly under 20 nM or not? condition not met

---

target under test: Kappa-type opioid receptor (Cavia porcellus)
Sequence (P41144 whole entry): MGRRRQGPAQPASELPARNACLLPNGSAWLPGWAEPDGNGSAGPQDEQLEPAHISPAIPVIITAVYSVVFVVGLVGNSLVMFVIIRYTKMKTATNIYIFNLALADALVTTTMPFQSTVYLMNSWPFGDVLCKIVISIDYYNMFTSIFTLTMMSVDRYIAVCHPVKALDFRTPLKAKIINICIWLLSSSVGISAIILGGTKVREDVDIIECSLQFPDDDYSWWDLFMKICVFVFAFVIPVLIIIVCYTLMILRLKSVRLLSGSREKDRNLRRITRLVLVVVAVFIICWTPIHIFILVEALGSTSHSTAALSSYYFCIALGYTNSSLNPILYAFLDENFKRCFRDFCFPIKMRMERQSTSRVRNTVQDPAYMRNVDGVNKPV
Please note: Ki exactly at 7 nM is false. Only values below 7 nM get true.

Example entries and their recorded answers appear below.
C[C@H]1[C@H]2Cc3ccc(N)cc3[C@@]1(C)CCN2C[C@@H]1CCCO1 : false
CC[C@@]12CCN(CC3CC3)C(C(=O)c3ccc(N)cc31)[C@@H]2C (stereo in doubt; 44) : true
C[C@H]1[C@H]2Cc3ccc(Nc4ccccc4)cc3[C@@]1(C)CCN2C[C@@H]1CCCO1 : true
COc1ccc(CNc2ccc3c(c2)[C@@]2(C)CCN(CC4CC4)C(C3)[C@@H]2C)cc1 : false
C[C@H]1C2Cc3ccc(Nc4ccc(Cl)cc4)cc3[C@@]1(C)CCN2CC1CC1 : true
C[C@H]1C2Cc3ccc(N(C)C)cc3[C@@]1(C)CCN2CC1CC1 (single isomer, unassigned; (-)) : false

Please check: Ki for C[C@H]1C2C(=O)c3ccc(O)cc3[C@@]1(C)CCN2CC1CC1 , strictly under 7 nM or not? true

Please check: Ki for C[C@H]1C2Cc3ccc(N=C(c4ccccc4)c4ccccc4)cc3[C@@]1(C)CCN2CC1CC1 , strictly under 7 nM or not? false

Please check: Ki for C[C@H]1[C@H]2Cc3ccc(O)cc3[C@@]1(C)CCN2C[C@@H]1CCCO1 , strictly under 7 nM or not? true

---

target under test: Mu-type opioid receptor (Cavia porcellus, UniProt P97266)
Sequence (P97266 whole entry): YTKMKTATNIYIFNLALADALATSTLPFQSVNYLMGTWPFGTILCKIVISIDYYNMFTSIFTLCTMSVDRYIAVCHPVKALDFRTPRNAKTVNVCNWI
Definition: the class of an entry is the range in lo (below 4 nM), mid (4 nM to below 20 nM), hi (20 nM or more) that contains its Ki.

Example entries and their recorded answers appear below.
C[C@H]1C2Cc3cc4cc[nH]c4cc3[C@@]1(C)CCN2CC1CC1 : mid
CC[C@@]12CCN(CC3CC3)C(C(=O)c3ccc(Nc4ccccc4)cc31)[C@@H]2C : mid

Any idea which band CC[C@@]12CCN(CC3CC3)C(C(=O)c3ccc(O)cc31)[C@@H]2C (single isomer, unassigned; (-)) [ETHYLKETOCYCLAZOCINE] is in? lo

Any idea which band C[C@H]1C2Cc3ccc(N(C)C)cc3[C@@]1(C)CCN2CC1CC1 (single isomer, unassigned; (-)) is in? hi

Any idea which band C[C@H]1C2C(=O)c3ccc(N)cc3[C@@]1(C)CCN2CC1CC1 is in? lo

Any idea which band C[C@H]1C2Cc3ccc(Nc4cccnc4)cc3[C@@]1(C)CCN2CC1CC1 is in? lo

Any idea which band CC[C@@]12CCN(CC3CC3)C(C(=O)c3ccc(N)cc31)[C@@H]2C (single isomer, unassigned; (-)) is in? lo

Any idea which band C[C@H]1C2Cc3ccc(Nc4ccc(C(F)(F)F)cc4)cc3[C@@]1(C)CCN2CC1CC1 is in? mid

Any idea which band CC[C@@]12CCN(CC3CC3)C(C(=O)c3ccc(N)cc31)[C@@H]2C (stereo in doubt; 44) is in? mid

Any idea which band C[C@H]1C2Cc3ccc(N4CCCCC4)cc3[C@@]1(C)CCN2CC1CC1 is in? hi

Any idea which band COc1cccc(Nc2ccc3c(c2)[C@@]2(C)CCN(CC4CC4)C(C3)[C@@H]2C)c1 is in? lo

---

target under test: Kappa-type opioid receptor (Cavia porcellus)
experimental readout: pKi
As a rule, pKi stands for the negative log10 of the concentration, concentration in M.

C[C@@H]1[C@@H]2Cc3ccc(N)cc3[C@]1(C)CCN2CC1CC1 : 6.30
C[C@H]1C2Cc3ccc(Nc4cccnc4)cc3[C@@]1(C)CCN2CC1CC1 : 9.30
C[C@H]1C2Cc3ccc(Nc4ccc(Cl)c(Cl)c4)cc3[C@@]1(C)CCN2CC1CC1 : 8.24

Name the reported pKi value associated with the compound C[C@H]1C2Cc3ccc(Nc4ccc(N(C)C)cc4)cc3[C@@]1(C)CCN2CC1CC1 8.06

Name the reported pKi value associated with the compound COc1cccc(Nc2ccc3c(c2)[C@@]2(C)CCN(CC4CC4)C(C3)[C@@H]2C)c1 9.00

Name the reported pKi value associated with the compound CC[C@@]12CCN(CC3CC3)C(C(=O)c3ccc(N)cc31)[C@@H]2C (single isomer, unassigned; (+)) 7.04

Name the reported pKi value associated with the compound COc1ccc(Nc2ccc3c(c2)[C@@]2(C)CCN(CC4CC4)C(C3)[C@@H]2C)cc1 9.54

Name the reported pKi value associated with the compound COc1ccccc1Nc1ccc2c(c1)[C@@]1(C)CCN(CC3CC3)C(C2)[C@@H]1C 8.66

Name the reported pKi value associated with the compound C[C@H]1C2Cc3cc4c(cc3[C@@]1(C)CCN2CC1CC1)[nH]c1ccccc14 8.02

Name the reported pKi value associated with the compound C[C@H]1C2Cc3ccc(Nc4ccc(C(C)(C)C)cc4)cc3[C@@]1(C)CCN2CC1CC1 7.85

Name the reported pKi value associated with the compound CC[C@@]12CCN(CC3CC3)C(C(=O)c3ccc(Nc4ccccc4)cc31)[C@@H]2C 8.66

Name the reported pKi value associated with the compound Cc1ccc(Nc2ccc3c(c2)[C@@]2(C)CCN(CC4CC4)C(C3)[C@@H]2C)cc1 9.24

Name the reported pKi value associated with the compound C[C@H]1C2Cc3ccc(N(C)C)cc3[C@@]1(C)CCN2CC1CC1 (single isomer, unassigned; (+)) 5.52

Name the reported pKi value associated with the compound C[C@H]1C2Cc3ccc(NCc4ccc(Cl)cc4)cc3[C@@]1(C)CCN2CC1CC1 8.14

Name the reported pKi value associated with the compound C[C@H]1C2Cc3ccc(Nc4ccncc4)cc3[C@@]1(C)CCN2CC1CC1 8.54

Name the reported pKi value associated with the compound CC[C@@]12CCN(CC3CC3)C(C(=O)c3ccc(N)cc31)[C@@H]2C (single isomer, unassigned; (-)) 8.96

Name the reported pKi value associated with the compound C[C@H]1C2Cc3ccc(Nc4ccccn4)cc3[C@@]1(C)CCN2CC1CC1 8.04

Name the reported pKi value associated with the compound C[C@H]1C2Cc3ccc(Nc4ccc(C(F)(F)F)cc4)cc3[C@@]1(C)CCN2CC1CC1 7.96

Name the reported pKi value associated with the compound C[C@H]1C2C(=O)c3ccc(N)cc3[C@@]1(C)CCN2CC1CC1 9.10
